- protocol_text: Cytotoxicity panel (CC50), BxPC3
- Type: cell-based
- measurement_context: human, bxpc3 cells
Provide the reported CC50 of each item.

Task item: Field request: CC50 | item: C[C@@]1(O)[C@H](O)[C@@H](CO)O[C@H]1n1ccc(=S)[nH]c1=O
Reply: > 100 µM

Task item: Field request: CC50 | item: CC(C)OC(=O)[C@H](C)NP(=O)(OC[C@H]1O[C@@H](n2ccc(=O)[nH]c2=S)[C@](C)(O)[C@@H]1O)Oc1ccccc1 (stereo partly drawn) [drawing 453]
Reply: > 300 µM

Task item: Field request: CC50 | item: C[C@@]1(O)[C@H](O)[C@@H](CO)O[C@H]1n1ccc(=O)[nH]c1=S [drawing 452]
Reply: > 100 µM

Task item: Field request: CC50 | item: CC(C)OC(=O)[C@H](C)NP(=O)(OC[C@H]1O[C@@H](n2ccc(=S)[nH]c2=O)[C@](C)(O)[C@@H]1O)Oc1ccccc1 (stereo partly drawn) [drawing 455]
Reply: > 300 µM

Task item: Field request: CC50 | item: CC(C)OC(=O)[C@H](C)NP(=O)(OC[C@H]1O[C@@H](n2ccc(=O)[nH]c2=[Se])[C@](C)(O)[C@@H]1O)Oc1ccccc1 (stereo partly drawn)
Reply: > 400 µM

Task item: Field request: CC50 | item: CC(C)OC(=O)[C@H](C)NP(=O)(OC[C@H]1O[C@@H](n2ccc(=S)[nH]c2=O)[C@](C)(F)[C@@H]1O)Oc1ccccc1 (stereo partly drawn)
Reply: > 300 µM

---

- protocol_text: Cytotoxicity panel (CC50), H9c
- Assay type: cell-based
- measurement_context: rat, h9c cells
Provide the reported CC50 of each item.

Task item: Field request: CC50 | item: CC(C)OC(=O)[C@H](C)NP(=O)(OC[C@H]1O[C@@H](n2ccc(=O)[nH]c2=S)[C@](C)(O)[C@@H]1O)Oc1ccccc1 (stereo partly drawn) [drawing 453]
Reply: > 200 µM

Task item: Field request: CC50 | item: CC(C)OC(=O)[C@H](C)NP(=O)(OC[C@H]1O[C@@H](n2ccc(=S)[nH]c2=O)[C@](C)(O)[C@@H]1O)Oc1ccccc1 (stereo partly drawn) [drawing 455]
Reply: > 200 µM

Task item: Field request: CC50 | item: CC(C)OC(=O)[C@H](C)NP(=O)(OC[C@H]1O[C@@H](n2ccc(=S)[nH]c2=O)[C@](C)(F)[C@@H]1O)Oc1ccccc1 (stereo partly drawn)
Reply: > 400 µM

---

- System: H9c
- protocol_text: Cytotoxicity panel (CC50), H9c
- Assay type: cell-based
- measurement_context: H9c
attribute_measured: CC50

Task item: Field request: CC50 | item: CC(C)OC(=O)[C@H](C)NP(=O)(OC[C@H]1O[C@@H](n2ccc(=S)[nH]c2=O)[C@](C)(O)[C@@H]1O)Oc1ccccc1 (stereo partly shown) [drawing 447]
Reply: > 200 µM

---

- test_system: Human DNA pol γ (Homo sapiens, UniProt P54098)
- Sequence (P54098 whole entry): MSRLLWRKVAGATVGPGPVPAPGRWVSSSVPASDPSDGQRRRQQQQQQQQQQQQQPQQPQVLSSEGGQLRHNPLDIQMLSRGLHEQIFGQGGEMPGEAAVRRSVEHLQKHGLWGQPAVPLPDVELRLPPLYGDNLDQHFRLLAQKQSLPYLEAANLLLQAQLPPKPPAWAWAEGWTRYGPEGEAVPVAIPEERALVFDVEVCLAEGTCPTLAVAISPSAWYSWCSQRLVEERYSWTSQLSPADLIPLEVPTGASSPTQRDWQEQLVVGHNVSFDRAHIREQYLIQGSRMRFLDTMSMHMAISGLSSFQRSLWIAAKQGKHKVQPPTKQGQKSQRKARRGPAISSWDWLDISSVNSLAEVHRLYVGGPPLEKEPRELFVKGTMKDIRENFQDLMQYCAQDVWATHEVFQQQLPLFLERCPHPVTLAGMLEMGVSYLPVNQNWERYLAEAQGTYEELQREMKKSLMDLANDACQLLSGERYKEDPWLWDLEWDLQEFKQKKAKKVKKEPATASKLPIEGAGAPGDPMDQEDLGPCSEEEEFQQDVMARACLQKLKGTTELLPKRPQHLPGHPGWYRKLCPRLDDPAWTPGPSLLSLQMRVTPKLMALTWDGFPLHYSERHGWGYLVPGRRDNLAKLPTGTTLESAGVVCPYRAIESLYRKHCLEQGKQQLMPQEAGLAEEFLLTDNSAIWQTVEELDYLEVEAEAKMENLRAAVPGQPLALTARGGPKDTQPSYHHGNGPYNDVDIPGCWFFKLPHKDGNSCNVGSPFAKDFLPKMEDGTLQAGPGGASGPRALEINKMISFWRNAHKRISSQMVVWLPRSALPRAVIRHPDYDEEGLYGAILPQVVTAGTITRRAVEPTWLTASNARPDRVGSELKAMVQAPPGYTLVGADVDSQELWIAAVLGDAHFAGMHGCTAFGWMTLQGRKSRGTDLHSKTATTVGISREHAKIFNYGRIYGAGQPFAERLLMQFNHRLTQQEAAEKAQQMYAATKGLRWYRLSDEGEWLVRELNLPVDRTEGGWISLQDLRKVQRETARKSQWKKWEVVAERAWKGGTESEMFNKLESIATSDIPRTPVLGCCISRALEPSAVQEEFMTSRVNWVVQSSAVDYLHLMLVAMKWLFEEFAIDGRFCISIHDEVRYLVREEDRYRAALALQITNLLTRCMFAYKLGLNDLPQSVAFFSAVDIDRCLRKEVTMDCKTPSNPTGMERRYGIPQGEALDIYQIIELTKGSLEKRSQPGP
- protocol_text: Human DNA Polymerase Inhibition Assay, pol γ
- Format: biochemical
attribute_measured: IC50

Task item: Form: Entry = C[C@@]1(O)[C@H](O)[C@@H](COP(=O)(O)OP(=O)(O)OP(=O)(O)O)O[C@H]1n1ccc(=O)[nH]c1=S | System = Human DNA pol γ (Homo sapiens, UniProt P54098) | IC50 = ____
Reply: > 1000 µM
